Below is a list of entries, each paired with its recorded Ki value.
TARGET_OR_TEST_SYSTEM: Adenosine receptor A2b (Homo sapiens)
Sequence (P29275 whole entry): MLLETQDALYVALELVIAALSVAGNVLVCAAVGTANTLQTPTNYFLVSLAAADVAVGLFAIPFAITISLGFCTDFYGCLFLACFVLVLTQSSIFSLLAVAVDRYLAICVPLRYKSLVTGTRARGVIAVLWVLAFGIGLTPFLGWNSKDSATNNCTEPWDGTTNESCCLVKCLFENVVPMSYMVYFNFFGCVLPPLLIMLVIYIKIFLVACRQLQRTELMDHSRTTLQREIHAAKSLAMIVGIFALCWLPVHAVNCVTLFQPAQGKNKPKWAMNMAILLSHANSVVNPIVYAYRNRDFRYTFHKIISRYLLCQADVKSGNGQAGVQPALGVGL
ASSAY_TEXT: Binding affinity to adenosine A2B receptor

>  <SMI>
COCc1cccc(CNC(=O)c2cc(-c3ccco3)nc(N)n2)n1

>  <TARGET_OR_TEST_SYSTEM>
Adenosine receptor A2b (Homo sapiens)

>  <Ki>
460 nM

$$$$
>  <SMI>
Nc1nc(C(=O)NCc2ccccc2)cc(-c2ccco2)n1

>  <TARGET_OR_TEST_SYSTEM>
Adenosine receptor A2b (Homo sapiens)

>  <Ki>
858 nM

$$$$
>  <SMI>
Nc1nc(C(=O)NCc2cccc(F)c2)cc(-c2ccco2)n1

>  <TARGET_OR_TEST_SYSTEM>
Adenosine receptor A2b (Homo sapiens)

>  <Ki>
924 nM

$$$$
>  <SMI>
COc1cccc(CNC(=O)c2cc(-c3ccco3)nc(N)n2)c1

>  <TARGET_OR_TEST_SYSTEM>
Adenosine receptor A2b (Homo sapiens)

>  <Ki>
121 nM

$$$$
>  <SMI>
Nc1nc(C(=O)NCc2cccnc2)cc(-c2ccco2)n1

>  <TARGET_OR_TEST_SYSTEM>
Adenosine receptor A2b (Homo sapiens)

>  <Ki>
5870 nM

$$$$
>  <SMI>
Cc1ccccc1CNC(=O)c1cc(-c2ccco2)nc(N)n1

>  <TARGET_OR_TEST_SYSTEM>
Adenosine receptor A2b (Homo sapiens)

>  <Ki>
917 nM

$$$$
>  <SMI>
Nc1nc(C(=O)NCc2cccc(Cl)c2)cc(-c2ccco2)n1

>  <TARGET_OR_TEST_SYSTEM>
Adenosine receptor A2b (Homo sapiens)

>  <Ki>
184 nM

$$$$
>  <SMI>
Cc1cccc(CNC(=O)c2cc(-c3ccco3)nc(N)n2)c1

>  <TARGET_OR_TEST_SYSTEM>
Adenosine receptor A2b (Homo sapiens)

>  <Ki>
402 nM

$$$$
